Tested on: 857933-349-R-J2-PDC complex spheroids, viability;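 note: spheroids exposed to compounds for one week before readout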
Experiment: Anticancer human tumor 857933-349-R-J2-PDC patient-derived colon adenocarcinoma cell line growth inhibition [GQUAD]
Settings: curve of compound
// reported IC50 per item
Reported Metric: IC50

> print(dat)
                                   compound                               target.desc  value.observed
1  Cn1ncnc1[C@H]1c2n[nH]c(=O)c3cc(F)cc(c23)N[C@@H]1c1ccc(F)cc1  857933-349-R-J2-PDC complex spheroids, viability      > 0.316 µM
2  Cc1cccc(N(C)C(=O)C2C(O)CCN2c2nc(C)cc(C(F)(F)F)c2C#N)c1 (configuration not stated)  857933-349-R-J2-PDC complex spheroids, viability         > 10 µM
3  O=C(c1cc(Cc2n[nH]c(=O)c3ccccc23)ccc1F)N1CCN(C(=O)C2CC2)CC1  857933-349-R-J2-PDC complex spheroids, viability         > 10 µM
4  C#Cc1c(F)ccc2cc(O)cc(-c3ncc4c(N5CC6CCC(C5)N6)nc(OCC56CCCN5CC(F)C6)nc4c3F)c12 (configuration not stated)  857933-349-R-J2-PDC complex spheroids, viability         > 10 µM
5  C=CC(=O)N1CCN(c2nc(=O)n(-c3c(C)ccnc3C(C)C)c3nc(-c4c(O)cccc4F)c(F)cc23)C(C)C1 (configuration not stated)  857933-349-R-J2-PDC complex spheroids, viability         > 10 µM
6  CC(C)n1c(=O)n(C)c2cnc3cc(F)c(-c4ccc(OCCCN5CCCCC5)nc4)cc3c21  857933-349-R-J2-PDC complex spheroids, viability         > 10 µM
7  COc1ncnc(C2CC2)c1-c1ncc2cnn(Cc3ccc(-c4nc(C(F)(F)F)cn4C(C)C)cc3)c2n1  857933-349-R-J2-PDC complex spheroids, viability         > 10 µM
